Test system: MOLT-4 leukemia
assay.info: NCI tumour cell line growth inhibition, 48 h
readout.type: TGI

Here are 3 compounds together with their reported answers.
# compound, TGI
data = [
    ("O=C(OC[C@H]1C[C@H]2C(=O)CCC[C@H]2O1)c1ccccc1", "> 100 µM"),
    ("Cc1ccc(S(=O)(=O)N2c3ccccc3[C@H]3CCC=C[C@H]32)cc1", "> 73.8 µM"),
    ("COc1cccc(NC(=O)C(C)(C)C)c1SSc1c(NC(=O)C(C)(C)C)cccc1OC", "> 70.6 µM"),
]

Find the recorded TGI belonging to O=C(NNC(=S)Nc1ccc(Br)cc1)c1cc(-c2ccccc2)nc2ccccc12 and report it.
52.9 µM

Find the recorded TGI belonging to CSc1ccc(OCC2OC2O)cc1 (stereo not given) and report it.
> 75.5 µM

Find the recorded TGI belonging to COc1ccc(/C=C/C(=N/NC(=O)N/N=C(/C=C/c2ccc(OC)cc2)C(C)(C)CN2CCCCC2)C(C)(C)CN2CCCCC2)cc1 and report it.
4.18 µM

----------
Tested on: TK-10 renal
assay.info: NCI tumour cell line growth inhibition, 48 h
readout.type: TGI (µM)
The figure you give is taken to be in µM; do not add the unit.

Here are 3 compounds together with their reported answers.
# compound, scale.unit, TGI
measured = [
    ("Cc1cc(=O)n2c3c(c4c(cc13)c(CO)cc(=O)n4C)OC2", "µM", 62.4),
    ("Cn1cc(S(=O)(=O)NC(=O)Nc2ccc(Cl)cc2)c2ccccc21", "µM", 55.2),
    ("Cc1ccc(/C=C/C(=N/N=C(N)N)c2ccccc2)cc1", "µM", 12),
]

Find the recorded TGI belonging to Cc1cccc2nc3cccc(C(=O)NCCNCCNCCNC(=O)c4cccc5nc6cccc(C)c6nc45)c3nc12 and report it.
0.846

Find the recorded TGI belonging to CC(=O)Oc1c2c(c(CC=C(C)C)c3c1C(=O)C1=C[C@@H]4CC5C(C)(C)OC(C/C=C(/C)C(=O)O)(C4=O)[C@@]15O3)OC(C)(CCC=C(C)C)C=C2 (stereo not given in full) and report it.
0.585

----------
Test system: SF-295 CNS
assay.info: NCI tumour cell line growth inhibition, 48 h; in the data active means GI50 below about 0.43 µM; inactive means the rest
Pick one: yes for active, no for inactive

# molecule, classification
data = [
    ("COC(=O)C[CH2][Ge]([CH3])([CH3])[S]c1ccccc1", "no"),
    ("CCCCCCCCCCC/C=C\\C[C@H](O)C/C=C1/C(=O)C=C[C@@H]1C/C=C\\CCCC(=O)OC", "no"),
    ("O=C(O)C1C2C=CC(C2)C1C(=O)O (stereo not drawn)", "no"),
    ("NC1CCC(Nc2nc(NCc3cc(Cl)ccc3O)c3ncn(C4CCCC4)c3n2)CC1 (stereo not drawn)", "yes"),
    ("CCN(CC)CCOc1ccc(/C=C2\\C[C@H]3[C@H]4CC=C5C[C@@H](O)CC[C@]5(C)[C@H]4CC[C@]3(C)[C@H]2O)cc1OC", "no"),
    ("CCCCCCC/C=C/[C@H]1O[C@]2(O)C(=O)C=C3C[C@@H](O[C@@H]4O[C@H](CO)[C@@H](O)C(O)[C@@H]4O)C[C@@H]3[C@H]2C=C1C (stereo partly drawn)", "no"),
    ("Cn1cc(-c2csc(-c3cn(CCCCN4CCCCC4)c4ccc(F)cc34)n2)c2cccnc21", "no"),
]

Now examine the next entry.
What is the recorded call for this molecule in the test? N.N.O=P([O-])([O-])CN(CCN(CP(=O)([O-])[O-])CP(=O)([O-])[O-])CP(=O)([O-])[O-].[Pt+2]
no
